Values from ChEMBL document CHEMBL1201861

- Test system: BHY;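 further: cell growth inhibition read out by a viability assay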
- test-description: cells
- Assay type: functional, cell-based
- experimental-parameters: Homo sapiens
- Description: SANGER: Inhibition of human BHY cell growth in a cell viability assay.
Overview of recorded pIC50 for various compounds
Scale note: pIC50 = -log10(concentration in M).

>>> print(df.to_string())
                                   compound  result_value
0  C/C(=C\c1csc(C)n1)[C@@H]1C[C@@H]2O[C@]2(C)CCC[C@H](C)[C@H](O)[C@@H](C)C(=O)C(C)(C)[C@@H](O)CC(=O)O1          9.71

Recorded pIC50 for OC[C@H](Cc1ccccc1)Nc1nc(Oc2ccc3c(c2)CCC3)nc2c1ncn2Cc1ccc(-c2ccccc2)cc1 , please?
5.29

Recorded pIC50 for COc1ccc(-c2cc3nccn3c(Nc3ncccc3C(N)=O)n2)cc1OC , please?
5.55

---

- System: H9
- test-description: cells
- Assay type: functional, cell-based
- experimental-parameters: Homo sapiens
- Description: SANGER: Inhibition of human H9 cell growth in a cell viability assay.
reported-endpoint: IC50 (nM)
Please give a number only; it is taken to be in nM.

compound	IC50 (nM)
O=C1NC(=O)c2c1c(-c1ccccc1Cl)cc1[nH]c3ccc(O)cc3c21	832

Recorded IC50 for CN(C)CCOc1ccc(-c2nc(-c3ccncc3)c(-c3ccc4c(c3)CC/C4=N\O)[nH]2)cc1 [SB590885] , please?
401

Recorded IC50 for NC1(c2ccc(-c3nc4ccn5c(=O)[nH]nc5c4cc3-c3ccccc3)cc2)CCC1 [MK-2206] , please?
389

---

- Test system: BL-41;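 further: growth inhibition of human BL-41 cells, read out with a cell viability assay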
- test-description: cells
- Type: functional, cell-based
- experimental-parameters: Homo sapiens
- Description: SANGER: Inhibition of human BL-41 cell growth in a cell viability assay.
reported-endpoint: IC50 (µM)
Please give a number only; it is taken to be in µM.

Answered examples (2):
>>> df
                                   compound  result_value
0  OC[C@H](Cc1ccccc1)Nc1nc(Oc2ccc3c(c2)CCC3)nc2c1ncn2Cc1ccc(-c2ccccc2)cc1          3.69
1         CCCCCCCCCCCC1=C(O)C(=O)C=C(O)C1=O           5.5

Recorded IC50 for COc1ccc(N(C(=O)Oc2c(C)cccc2C)c2ccnc(Nc3ccc(N4CCN(C)CC4)cc3)n2)c(OC)c1 , please?
1

---

- System: MC116
- test-description: cells
- Type: functional, cell-based, Homo sapiens
- experimental-parameters: Homo sapiens, MC116
- Description: SANGER: Inhibition of human MC116 cell growth in a cell viability assay.
pIC50: −log10 of the molar value.
reported-endpoint: pIC50

Answered examples (3):
compound	pIC50
NC(=O)c1ccc(N(C(N)=O)c2c(F)cccc2F)nc1-c1ccc(F)cc1F	< 5.70
Nc1ccccc1NC(=O)c1ccc(CNC(=O)OCc2cccnc2)cc1	5.84
O=S(=O)(O)c1ccc2cc(/N=N/c3cc(S(=O)(=O)O)c4cccnc4c3O)ccc2c1	< 4.80

Lab note: next molecule to report on.
Recorded pIC50 for Cc1ccc(C(=O)Nc2ccc(CN3CCN(C)CC3)c(C(F)(F)F)c2)cc1C#Cc1cnc2cccnn12 , please?
< 6.29

---

Overview of recorded pIC50 for various compounds
- Tested on: HCE-4;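 further: cell viability assay measuring inhibition of growth in the human HCE-4 cell line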
- test-description: cells
- Type: functional, cell-based
- experimental-parameters: Homo sapiens
- Description: SANGER: Inhibition of human HCE-4 cell growth in a cell viability assay.
pIC50: −log10 of the molar value.

Answered examples (2):
In [3]: df
Out[3]:
                                   compound  reported_endpoint  result_value
0  Cc1ccc(NC(=O)c2ccc(CN3CCN(C)CC3)cc2)cc1Nc1nccc(-c2cccnc2)n1              pIC50        < 5.70
1  OC[C@H](Cc1ccccc1)Nc1nc(Oc2ccc3c(c2)CCC3)nc2c1ncn2Cc1ccc(-c2ccccc2)cc1              pIC50          5.13

Recorded pIC50 for C[C@@H](Oc1cc(-c2cnn(C3CCNCC3)c2)cnc1N)c1c(Cl)ccc(F)c1Cl , please?
< 5.70

Recorded pIC50 for C/C(=C\c1csc(C)n1)[C@@H]1C[C@@H]2O[C@]2(C)CCC[C@H](C)[C@H](O)[C@@H](C)C(=O)C(C)(C)[C@@H](O)CC(=O)O1 , please?
8.88
